- Test system: myeloid leukemia patient primary cells Pat.15
- protocol: cell viability (% survival relative to DMSO control); higher = less cytotoxic
- conditions: 10000 nM; 72 h
result.type: cell viability (%)
Just the number please, in %, no unit attached.

Recorded cell viability, per entry:
molecule | measured.on | measured.number
C[C@]12C=CC(=O)C=C1CC[C@@H]1[C@@H]2[C@@H](O)C[C@@]2(C)[C@H]1CC[C@]2(O)C(=O)CO | myeloid leukemia patient primary cells Pat.15 | 61.2
CO[C@H]1C[C@@H]2CC[C@@H](C)[C@@](O)(O2)C(=O)C(=O)N2CCCC[C@H]2C(=O)O[C@H]([C@H](C)C[C@@H]2CC[C@@H](OC(=O)C(C)(CO)CO)[C@H](OC)C2)CC(=O)[C@H](C)/C=C(\C)[C@@H](O)[C@@H](OC)C(=O)[C@H](C)C[C@H](C)/C=C/C=C/C=C/1C | myeloid leukemia patient primary cells Pat.15 | 21.8
CN(Cc1cnc2nc(N)nc(N)c2n1)c1ccc(C(=O)N[C@@H](CCC(=O)O)C(=O)O)cc1 [Methotrexate] | myeloid leukemia patient primary cells Pat.15 | 91.1

Next, consider the following molecule.
# return cell viability of CCN(CC)C(=S)SSC(=S)N(CC)CC (system: myeloid leukemia patient primary cells Pat.15)
0.0644

====

- Test system: myeloid leukemia patient primary cells Pat.4
- protocol: cell viability (% survival relative to DMSO control); higher = less cytotoxic
- conditions: 1 nM; 72 h
This listing pairs compounds with measured cell viability.
Just the number please, in %, no unit attached.

Recorded cell viability, per entry:
compound | cell viability (%)
O=C1C(SCCO)=C(SCCO)C(=O)c2ccccc21 | 76.4
CO[C@H]1C[C@@H]2CC[C@@H](C)[C@@](O)(O2)C(=O)C(=O)N2CCCC[C@H]2C(=O)O[C@H]([C@H](C)C[C@@H]2CC[C@@H](OC(=O)C(C)(CO)CO)[C@H](OC)C2)CC(=O)[C@H](C)/C=C(\C)[C@@H](O)[C@@H](OC)C(=O)[C@H](C)C[C@H](C)/C=C/C=C/C=C/1C [Temsirolimus] | 75.1
O=C(O)CC[N+](=O)[O-] [3-nitropropionic acid] | 83.6

# return cell viability of Cc1c2c(=O)n(-c3ccccc3Cl)[nH]c2cc(=O)n1Cc1ccccn1 (system: myeloid leukemia patient primary cells Pat.4)
63.6

# return cell viability of O=C(/C=C/c1ccc(O)c(O)c1)OCCc1ccccc1 [Caffeic acid phenethyl ester] (system: myeloid leukemia patient primary cells Pat.4)
89.5

# return cell viability of CCN(CC)C(=S)SSC(=S)N(CC)CC [Disulfiram] (system: myeloid leukemia patient primary cells Pat.4)
94.9

# return cell viability of CN(Cc1cnc2nc(N)nc(N)c2n1)c1ccc(C(=O)N[C@@H](CCC(=O)O)C(=O)O)cc1 [Methotrexate] (system: myeloid leukemia patient primary cells Pat.4)
88

# return cell viability of Cn1cc(-c2ccncc2)c(-c2ccc(OCc3ccc4ccccc4n3)cc2)n1 (system: myeloid leukemia patient primary cells Pat.4)
93.5

====

- Test system: myeloid leukemia patient primary cells Pat.13
- protocol: cell viability (% survival relative to DMSO control); higher = less cytotoxic
- conditions: 1000 nM; 72 h
This listing pairs compounds with measured cell viability.
Just the number please, in %, no unit attached.

Recorded cell viability, per entry:
molecule.smiles | result.type | measured.number
Cc1[nH]nc(C(F)(F)F)c1Cc1sc2c(c1C(=O)N1C[C@](C)(O)CO1)c(=O)n(C)c(=O)n2C(C)C | cell viability | 97.4
Cc1cc2c(C(C)C)c(O)c(O)c(C=O)c2c(O)c1-c1c(C)cc2c(C(C)C)c(O)c(O)c(C=O)c2c1O | cell viability | 75.4
CC(C)(C)c1ccc(S(=O)(=O)NCc2ccc(C(=O)Nc3cccnc3)cc2)cc1 | cell viability | 8.95

Next, consider the following compound.
Dear colleague, please send me the reported cell viability for CO[C@H]1C[C@@H]2CC[C@@H](C)[C@@](O)(O2)C(=O)C(=O)N2CCCC[C@H]2C(=O)O[C@H]([C@H](C)C[C@@H]2CC[C@@H](OC(=O)C(C)(CO)CO)[C@H](OC)C2)CC(=O)[C@H](C)/C=C(\C)[C@@H](O)[C@@H](OC)C(=O)[C@H](C)C[C@H](C)/C=C/C=C/C=C/1C when you can.
92

====

- Tested on: KG-1
- protocol: cell viability (% survival relative to DMSO control, bortezomib = 0%); higher = less cytotoxic
- conditions: 1000 nM; 72 h
Counter-ions that a name gives are not always drawn.
This listing pairs molecules with measured cell viability.
Just the number please, in %, no unit attached.

Recorded cell viability, per entry:
molecule | measurement.unit | cell viability
O=C1C(SCCO)=C(SCCO)C(=O)c2ccccc21 | % | 20.2
Cc1c2c(=O)n(-c3ccccc3Cl)[nH]c2cc(=O)n1Cc1ccccn1 | % | 102
CCc1c(C(=O)C(N)=O)c2c(OCC(=O)O)cccc2n1Cc1ccccc1 | % | 95.9
COC(=O)c1cc2c(C(F)(F)F)cc(-c3ccccc3)cc2n1O | % | 85.9

Dear colleague, please send me the reported cell viability for CCn1c(=Cc2cccc[n+]2CC)sc(=C2Sc3ccccc3N2C)c1=O when you can.
102

Dear colleague, please send me the reported cell viability for C[C@]12C=CC(=O)C=C1CC[C@@H]1[C@@H]2[C@@H](O)C[C@@]2(C)[C@H]1CC[C@]2(O)C(=O)CO when you can.
91.3

Dear colleague, please send me the reported cell viability for CCN(CCO)CCCC(C)Nc1ccnc2cc(Cl)ccc12 (stereo unspecified) [Hydroxychloroquine sulfate] when you can.
112

====

This listing pairs compounds with measured cell viability.
- System: LAMA-84
- protocol: cell viability (% survival relative to DMSO control, bortezomib = 0%); higher = less cytotoxic
- conditions: 100 nM; 72 h
Structures can show the parent of a compound that is named as a salt.
Just the number please, in %, no unit attached.

Recorded cell viability, per entry:
compound | cell viability (%)
COC(=O)c1cc2c(C(F)(F)F)cc(-c3ccccc3)cc2n1O [NHI-2] | 93.9
CCn1c(=Cc2cccc[n+]2CC)sc(=C2Sc3ccccc3N2C)c1=O [MKT 077] | 114
CCCc1nc(C)c2c(=O)nc(-c3cc(S(=O)(=O)N4CCN(CC)CC4)ccc3OCC)[nH]n12 [Vardenafil] | 101

Dear colleague, please send me the reported cell viability for COc1ccc2c(NC(=O)Nc3cccc(C(F)(F)F)n3)ccnc2c1 when you can.
105

Dear colleague, please send me the reported cell viability for N#C/C(=C\c1ccc(O)cc1)C(=O)O [alpha-cyano-4-hydroxycinnamic acid] when you can.
96.7

Dear colleague, please send me the reported cell viability for CCN(CC)C(=S)SSC(=S)N(CC)CC [Disulfiram] when you can.
94.4

Dear colleague, please send me the reported cell viability for CCN(CCO)CCCC(C)Nc1ccnc2cc(Cl)ccc12 (centres undefined) [Hydroxychloroquine sulfate] when you can.
106

Dear colleague, please send me the reported cell viability for CN(Cc1cnc2nc(N)nc(N)c2n1)c1ccc(C(=O)N[C@@H](CCC(=O)O)C(=O)O)cc1 [Methotrexate] when you can.
22.7

Dear colleague, please send me the reported cell viability for O=C(Nc1ccccc1)c1cc([N+](=O)[O-])ccc1Cl [GW9662] when you can.
110

Dear colleague, please send me the reported cell viability for Cc1c2c(=O)n(-c3ccccc3Cl)[nH]c2cc(=O)n1Cc1ccccn1 when you can.
100

====

- System: HL-60
- protocol: cell viability (% survival relative to DMSO control, bortezomib = 0%); higher = less cytotoxic
- conditions: 1 nM; 72 h
This listing pairs compounds with measured cell viability.
Just the number please, in %, no unit attached.

Dear colleague, please send me the reported cell viability for O=c1c(-c2ccc(O)cc2)coc2cc(O[C@@H]3O[C@H](CO)[C@@H](O)[C@H](O)[C@H]3O)ccc12 [Daidzin] when you can.
107

Dear colleague, please send me the reported cell viability for O=c1cc(N2CCOCC2)oc2c(-c3ccccc3)cccc12 when you can.
130

Dear colleague, please send me the reported cell viability for CN1CCN(CCCN2c3ccccc3Sc3ccc(C(F)(F)F)cc32)CC1 [Trifluoperazine] when you can.
100

====

- Test system: HL-60
- protocol: cell viability (% survival relative to DMSO control, bortezomib = 0%); higher = less cytotoxic
- conditions: 1 nM; 72 h
result.type: cell viability (%)
Just the number please, in %, no unit attached.

Recorded cell viability, per entry:
molecule.smiles | measurement.unit | cell viability
Cc1cc2c(C(C)C)c(O)c(O)c(C=O)c2c(O)c1-c1c(C)cc2c(C(C)C)c(O)c(O)c(C=O)c2c1O | % | 107
c1cc(-c2cnn3cc(-c4ccc(OCCN5CCCCC5)cc4)cnc23)ccn1 | % | 113
COC(=O)c1cc2c(C(F)(F)F)cc(-c3ccccc3)cc2n1O | % | 98.5

Next, consider the following molecule.
Dear colleague, please send me the reported cell viability for CN(CCOc1ccc(Cc2sc(O)nc2O)cc1)c1ccccn1 when you can.
97.8
